Tested on: human PCSK9 locus
assayInfo: Secreted PCSK9 by ELISA (normalized to total cell count) in Huh7 cells transfected with mRNA and gRNA
Format: cell-based
recordedConditions: 50 ng mRNA:25 ng gRNA; paired with LTRP5-ADD-ZIM3 mRNA; Huh7 cells; 6 days post-transfection; relative to non-targeting gRNA control
resultType: Percent reduction in PCSK9 secretion

Could you please provide reported Percent reduction in PCSK9 secretion for TG-06-251 (guide CUCCAGGCCCUCCACCCUCC; listed as RNA, chemistry not given here) ? Thanks!
55.28%

Could you please provide reported Percent reduction in PCSK9 secretion for UUCCACUGGCCUUAACCUGG (listed as RNA, chemistry not given here) [spacer 6.142, Promoter] ? Thanks!
62.48%

Could you please provide reported Percent reduction in PCSK9 secretion for CGGGGUUGGGAGACCCGGAG (listed as RNA, chemistry not given here) [spacer 6.169, Intron 1] ? Thanks!
19.3%
